Consider the following variants; for each one, report its self-cleavage.
B1: LINE1-full (parent)
chain: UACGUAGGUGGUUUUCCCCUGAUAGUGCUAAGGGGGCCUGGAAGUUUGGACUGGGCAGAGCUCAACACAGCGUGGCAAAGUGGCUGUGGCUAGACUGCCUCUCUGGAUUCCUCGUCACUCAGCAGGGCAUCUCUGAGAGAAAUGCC

Variants of: B1
Test: self-cleavage, relative activity (ratio to wild type); higher = more cleavage; in vitro, sequencing; the parent is a self-cleaving ribozyme
Numbers only.

Can you give me self-cleavage for all of these, one by one?
1. A79G U108A
2. A57G G125A

1.17
0.52

Can you give me self-cleavage for all of these, one by one?
1. U96A C111U
2. G58A A107G
3. C128A U130C
4. A64C C101U
5. A77G A138G
6. A2G G44U
7. A2U U46A
8. A24U U26C

0.07
0.04
1.11
0.28
2.3
0.87
0.51
0.97

Numbers sourced from the RNAGym collection of RNA variant scans (doi:10.7554/elife.90254).
